Source: the supplement of paper PMC10567573

B1: CDC14A (parent)
chain: LNLAMVYRYCCKLNKKLKSYSLSR

variants of: B1; assay: protein stability index of a GFP-peptide fusion (GPS, HEK-293T) (PSI 1-6); higher = more stable; conditions: c terminus: a fixed tail appended;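 note: lentivirally expressed fusions sorted by FACS into six bins by GFP to DsRed ratio, PSI derived from sequencing read proportions per bin multiplied by bin number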
Rule: Criterion met for protein stability index not less than 3, Criterion not met for anything less.

*Q* Dear colleague, could you confirm whether `Y7E` has protein stability index at or above 3?
*A* Criterion not met

*Q* Has `V6M` a recorded protein stability index greater than or equal to 3?
*A* Criterion not met

*Q* Record `K15N` ; criterion: protein stability index no lower than 3. Met?
*A* Criterion not met

*Q* Has `L22T` a recorded protein stability index greater than or equal to 3?
*A* Criterion not met

*Q* Please check the record `M5N` and state if its protein stability index is at or above 3.
*A* Criterion met

*Q* Is protein stability index for `Y20K` at or above 3?
*A* Criterion met

*Q* protein stability index >= 3 for `R8N` ?
*A* Criterion not met

*Q* API: above_or_equal(metric=protein stability index, cutoff=3) for item `Y9E`
*A* Criterion not met

*Q* Could you tell me if the measured protein stability index of `V6I` reaches 3 or more?
*A* Criterion met

*Q* Given the entry `N2P` , answer whether its protein stability index meets or surpasses 3.
*A* Criterion met

*Q* Check the entry `M5A` : does protein stability index equal or exceed 3?
*A* Criterion not met

*Q* Threshold query (protein stability index >= 3) on `L13Q`
*A* Criterion met

*Q* Hi, just wondering whether `Y7A` shows protein stability index of 3 or higher.
*A* Criterion not met

*Q* Is reported protein stability index greater than or equal to 3 here: `K15H`
*A* Criterion met

*Q* Test whether the variant `A4L` records protein stability index of 3 or higher.
*A* Criterion not met

*Q* Is the recorded value of protein stability index equal to or greater than 3 for this variant? `K12N`
*A* Criterion not met
